Target: HCoV-OC43 N WT (Human coronavirus OC43, UniProt P33469 1-448)
Sequence (P33469 whole entry): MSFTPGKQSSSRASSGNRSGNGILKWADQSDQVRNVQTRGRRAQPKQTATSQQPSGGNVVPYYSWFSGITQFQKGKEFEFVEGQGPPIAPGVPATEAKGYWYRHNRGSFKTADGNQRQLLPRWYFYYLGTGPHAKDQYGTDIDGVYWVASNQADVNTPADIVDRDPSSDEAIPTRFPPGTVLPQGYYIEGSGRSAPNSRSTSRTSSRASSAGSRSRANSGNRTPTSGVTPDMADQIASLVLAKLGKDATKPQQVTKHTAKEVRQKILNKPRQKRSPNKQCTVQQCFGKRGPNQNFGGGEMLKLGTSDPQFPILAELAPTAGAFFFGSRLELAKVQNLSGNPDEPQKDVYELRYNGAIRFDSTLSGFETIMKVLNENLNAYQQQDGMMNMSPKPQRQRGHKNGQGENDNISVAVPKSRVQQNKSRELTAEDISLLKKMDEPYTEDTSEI
Test: SPR
READOUT_KIND: pKd
pKd here is simply -log10 of the concentration when that concentration is written in mol/L.

Problem: // Input: UCUAAACUCUAAACUCUAAACUCUAAAC (ssRNA) [(UCUAAAC)4 28-mer] . Output its pKd only.
Result: 7.93

Source listed as paper PMC3774783.
